system: K562; assay: NCI tumour cell line growth inhibition, 48 h
Active and inactive are the calls of the source. No stated cut-off is given here; in the data, active = GI50 up to about 1.1 µM and inactive = higher.
Pick from active, inactive when you respond.

Please review the following examples before continuing.
O=C1CCCc2ccc3c(c21)CC1(Cc2cc4c(cc2C1)CCCC4)C3 : inactive
COC(=O)[C@@H]1C[C@H]([Se]c2ccccc2)CN1C(=O)OCc1ccccc1 : inactive
CC(=O)O[C@H]1C(=O)[C@@]2(C)[C@H]([C@H](OC(=O)c3cccc([N+](=O)[O-])c3)[C@]3(O)C[C@H](OC(=O)[C@H](O)[C@@H](NC(=O)c4ccccc4)c4ccccc4)C(C)=C1C3(C)C)[C@]1(OC(C)=O)CO[C@@H]1C[C@@H]2O : active

q: Short answer needed: outcome of this test for CC1NCCC(CC(=O)O)C1CC(=O)O (stereo not drawn) ?
a: inactive

q: How was CC1=Nc2ccccc2SC(c2c(Cl)cccc2Cl)C1 (stereo not drawn) classified in this test?
a: active

q: GET /call?item= Cc1cc(O)nc(NNC(C#N)c2cccc([N+](=O)[O-])c2)n1 (stereo not drawn) returns the recorded outcome of this test.
a: inactive

q: How was "c1ccc([P+](CCCCCC[P+](c2ccccc2)(c2ccccc2)c2ccccc2)(c2ccccc2)c2ccccc2)cc1" classified in this test?
a: inactive

q: For CC(CO)(Nc1ccc([N+](=O)[O-])cc1[N+](=O)[O-])C(=O)O (stereo not drawn) , what call appears in the results of this test?
a: inactive

q: Tell me the assay call for CC1(C)CCCC2(C)[C@@H]1CC[C@]13C[C@](C)(CC[C@@H]21)[C@@H]3CO (stereo partly drawn) please.
a: inactive

q: Record request — test call for "COc1ccccc1-n1c(C)nc2ccccc2c1=O"
a: inactive

q: Hi team, can someone confirm the assay call for "CN(C)CCCNc1ccnc2cccc([N+](=O)[O-])c12" ?
a: inactive

q: Hi, do you know how "C=CCN1C(N)=C(C(N)=O)S/C1=C1/SC(=S)N(c2ccc(C)cc2)C1=O" came out in this test?
a: inactive

q: Record request — test call for "CC/C(CC(=O)CCC(=O)Nc1ccccc1[N+](=O)[O-])=N/NC(=O)C[n+]1ccccc1"
a: inactive

----------
tested on: OVCAR-5; assay: NCI tumour cell line growth inhibition, 48 h
Activity calls are given as the source filed them. Rule as the data show it: active = GI50 up to about 1.1 µM and inactive = higher.
The reply should name one outcome from yes = active, no = inactive

CC(CO)(Nc1ccc([N+](=O)[O-])cc1[N+](=O)[O-])C(=O)O (configuration not stated) : no
O=C(CCn1ccnc1[N+](=O)[O-])NCCCn1ccnc1[N+](=O)[O-] : no
N#CNc1nc(C(=O)Nc2ccc(Cl)cc2)cc(-c2ccccc2)n1 : no
Brc1ccc(C[P+]2(c3ccccc3)CCCCC2)cc1.[O-][Cl+3]([O-])([O-])[O-] : no
CC1=CC[C@](C)(O)[C@@]2(C)CC[C@H]3C(=C(C)C)C(=O)C[C@]3(C)C[C@H]12 : no
COc1ccc(OC)c(CNc2ccc(C(=O)O)cc2)c1 : no
C1=C\CCCCN2C[C@H]3CCCC/C=C\CCCCN4CC[C@@H]([C@H](CCCCCC/1)C4)[C@H](C3)C2 : no
CCNC1=C(NC(=O)c2ccccc2)C(=O)c2ccccc2C1=O : no
CC1CC(=O)NC2CC1C2(C)C (configuration not stated) : no
O=C(O)C1OC(Oc2cc(O)c3c(=O)cc(-c4ccc(O)cc4)oc3c2)C(O)C(O)C1O (configuration not stated) : no

q: Assay outcome for "CN(C)C(=S)/N=c1\ssc(=S)n1Cc1ccccc1" : what was it?
a: no

q: Look up the recorded call for "O=C(CN1CCCC1=O)CS(=O)(=O)c1ccccc1" in this test.
a: no

q: Per the records of this test, what outcome belongs to "O=C1c2ccccc2C(=O)N1[C@@H](Cc1ccccc1)C(=O)n1cccc1CO" ?
a: no

q: Please indicate how the test categorized "c1cnc2c(c1)-n1cccc1C1(CCSCC1)NN2" .
a: no

----------
So I've got a bunch of molecules here, and I need their GI50 values.
test system: A549; test: NCI tumour cell line growth inhibition, 48 h
Activity calls are given as the source filed them. No stated cut-off is given here; in the data, active = GI50 up to about 1.1 µM and inactive = higher.

Please state GI50 for every molecule in the list that follows.
1. O=C1/C(=C/c2ccc(Cl)cc2)COc2ccc(Br)cc21
2. CC(=O)NNc1nc(C)c(C(=O)/C=C/c2ccc(/C=C/C(=O)c3sc(NNC(C)=O)nc3C)cc2)s1
3. O=c1cc(-c2ccccc2)[nH]c2cc(Cl)cc(Cl)c12

a:
> 100 µM (inactive)
> 100 µM (inactive)
53.3 µM (inactive)

----------
system: CCRF-CEM; experiment: NCI tumour cell line growth inhibition, 48 h
Active and inactive are the calls of the source. No stated cut-off is given here; in the data, active = GI50 up to about 1.1 µM and inactive = higher.
Use one of these outcomes when replying: YES for active, NO for inactive

Completed entries (count: 5):
Cc1ccc(NNc2cc(=O)[nH]c(=O)[nH]2)cc1Cl : NO
O=C(c1ccc(Cl)cc1)N1CCN=C1c1cc2ccccc2c2ccccc12 : NO
CC(C)C1=CC(=O)C(C)(C2=NC(C)(C)CO2)c2ccccc21 (centres undefined) : NO
COc1ccc(N2C(=O)CC(=O)N(NC(=O)C(C)Oc3ccccc3C)C2=S)cc1 (centres undefined) : NO
COC(=O)C1=CCON(c2ccccc2)C1c1ccccc1 (centres undefined) : NO

q: How did this test come out for CON(C)C(=O)C(C)NC(=O)OCc1ccccc1 (centres undefined) ?
a: NO

q: Per the records of this test, what outcome belongs to "c1ccc2c(c1)[nH]c1nc3cc(-c4ccc5nc6c(nc5c4)[nH]c4ccccc46)ccc3nc12" ?
a: NO

q: Could you kindly confirm the outcome this assay logged for "CC(=O)NNc1nc(C)c(C(=O)/C=C/c2ccc(/C=C/C(=O)c3sc(NNC(C)=O)nc3C)cc2)s1" ?
a: NO

q: What call does the record list for N#CC(NC12CC3CC(CC(C3)C1)C2)c1ccccc1C(F)(F)F (centres undefined) ?
a: NO

q: What outcome does the record of this test show for CCCC(=O)Nc1cc(/C=C/C(=O)N2CC(CCl)c3ccc([N+](=O)[O-])cc32)n(C)c1 (centres undefined) ?
a: YES

q: For this compound, state the assay outcome: "C/C(=N\NC(N)=S)c1ccc(C)c(C)c1"
a: NO

q: # lookup: test call for CC(C)C1CNC2N1C(=O)C2(C)OCc1ccccc1 (centres undefined)
a: NO

q: Test call, this compound: "COc1cc2c3c(n(C)c(=O)c2cc1OC)-c1cc2c(cc1/C3=C/CCCCBr)OCO2"
a: NO

q: Answer briefly: the call reported for "O=C(CCn1ccnc1[N+](=O)[O-])NCCCn1ccnc1[N+](=O)[O-]" in this assay.
a: NO

----------
tested on: NCI-H460; experiment: NCI tumour cell line growth inhibition, 48 h
The source made the active and inactive calls. Cut-off read from the data, not from the text of the source: active = GI50 up to about 1.1 µM and inactive = higher.
Write down the outcome that applies. Available outcomes: active, inactive

q: How was COC(=O)CC1C=CC(C)(OC)OO1 (stereo not given) classified in this test?
a: inactive

q: GET /call?item= "CSC(=S)Nc1cccc(C)n1" returns the recorded outcome of this test.
a: inactive

q: Could you please tell me the result logged for CC/C=C\C/C=C\C1CC(=O)NCCCNCCCCN1 (stereo not given) in this assay?
a: inactive

q: Test call, this molecule: "CCCSc1ccc2[nH]c(N3C(=O)/C(=C/c4cc(OC)c(OC)c(OC)c4)N=C3c3ccccc3)cc2c1"
a: inactive

q: Hi, do you know how "CN1C(Cl)=NS(=O)(=O)c2ccccc21" came out in this test?
a: inactive

q: # fetch the recorded call for Cc1ccc(S(=O)(=O)N/N=C2\CC(C)OC3=C2CCCCCC3)cc1 (stereo not given) here
a: inactive

q: Please let me know the test result on file for Cc1cccc2c1CC(C1OC(=O)c3ccccc31)C2=O (stereo not given) .
a: inactive

q: Recorded test call requested for "COc1ccccc1-n1c(C)nc2ccccc2c1=O"
a: inactive

q: Returns: the outcome recorded for "CCOc1cc2c(OCc3ccccc3)cc3c4cc(OC)c(OC)cc4c[n+](C)c3c2cc1OC" in this assay.
a: inactive

q: Record lookup: outcome of this test for "Cn1cc(C(=O)/C(Cl)=C(\Cl)C(=O)O)c2ccccc21" ?
a: inactive

q: Kindly provide the recorded test outcome for the following molecule: O=C(O)C1OC(Oc2cc(O)c3c(=O)cc(-c4ccc(O)cc4)oc3c2)C(O)C(O)C1O (stereo not given)
a: inactive

q: Dear all, I need the recorded test outcome for "O=c1[nH]c2ccccc2c2oc(-c3ccccc3)nc12" , thank you.
a: inactive

q: Hi team, can someone confirm the assay call for "COc1cc2c3c(n(C)c(=O)c2cc1OC)-c1cc2c(cc1/C3=C/CCCCBr)OCO2" ?
a: inactive

q: Please share the test call associated with "Cc1ccc(NNc2cc(=O)[nH]c(=O)[nH]2)cc1Cl" .
a: inactive

q: Fill in: this test's call for "NCCCNc1ccc2c(c1)[n+]([O-])c1ccccc1[n+]2[O-]" is ___
a: inactive

q: Which outcome was entered for the molecule "Cc1ccc(N)c(S)c1" in this test?
a: inactive

q: What call does the record list for COc1cc(C(C#N)NNC(=O)Cc2ccccc2)cc(OC)c1OC (stereo not given) ?
a: inactive

q: Would you mind telling me which call this test gave "Cc1c(C#N)c2nnn(C)c(=O)n2c1-c1ccccc1" ?
a: inactive

q: Returns: the outcome recorded for "Cc1sc2c(c1C)/C(=N\O)c1cccn1-2" in this assay.
a: inactive

q: State the result this test recorded for "COc1c(C)c(C/C=C(\C)CCCCO)c(OC)c(OC)c1OC" .
a: inactive

q: Just curious, what result did "NC1=Nc2ccccc2Sc2nnc(-c3ccc(Cl)cc3)n21" get here?
a: inactive

q: So what was the verdict on COC(=O)C1=CCON(c2ccccc2)C1c1ccccc1 (stereo not given) in this test?
a: inactive

Data origin: ChEMBL document CHEMBL1201862
